B1: Vang-like protein 2 (Homo sapiens), Q9ULK5 (parent)
chain: MDTESQYSGYSYKSGHSRSSRKHRDRRDRHRSKSRDGGRGDKSVTIQAPGEPLLDNESTRGDERDDNWGETTTVVTGTSEHSISHDDLTRIAKDMEDSVPLDCSRHLGVAAGATLALLSFLTPLAFLLLPPLLWREELEPCGTACEGLFISVAFKLLILLLGSWALFFRRPKASLPRVFVLRALLMVLVFLLVVSYWLFYGVRILDARERSYQGVVQFAVSLVDALLFVHYLAVVLLELRQLQPQFTLKVVRSTDGASRFYNVGHLSIQRVAVWILEKYYHDFPVYNPALLNLPKSVLAKKVSGFKVYSLGEENSTNNSTGQSRAVIAAAARRRDNSHNEYYYEEAEHERRVRKRRARLVVAVEEAFTHIKRLQEEEQKNPREVMDPREAAQAIFASMARAMQKYLRTTKQQPYHTMESILQHLEFCITHDMTPKAFLERYLAAGPTIQYHKERWLAKQWTLVSEEPVTNGLKDGIVFLLKRQDFSLVVSTKKVPFFKLSEEFVDPKSHKFVMRLQSETSV
partner: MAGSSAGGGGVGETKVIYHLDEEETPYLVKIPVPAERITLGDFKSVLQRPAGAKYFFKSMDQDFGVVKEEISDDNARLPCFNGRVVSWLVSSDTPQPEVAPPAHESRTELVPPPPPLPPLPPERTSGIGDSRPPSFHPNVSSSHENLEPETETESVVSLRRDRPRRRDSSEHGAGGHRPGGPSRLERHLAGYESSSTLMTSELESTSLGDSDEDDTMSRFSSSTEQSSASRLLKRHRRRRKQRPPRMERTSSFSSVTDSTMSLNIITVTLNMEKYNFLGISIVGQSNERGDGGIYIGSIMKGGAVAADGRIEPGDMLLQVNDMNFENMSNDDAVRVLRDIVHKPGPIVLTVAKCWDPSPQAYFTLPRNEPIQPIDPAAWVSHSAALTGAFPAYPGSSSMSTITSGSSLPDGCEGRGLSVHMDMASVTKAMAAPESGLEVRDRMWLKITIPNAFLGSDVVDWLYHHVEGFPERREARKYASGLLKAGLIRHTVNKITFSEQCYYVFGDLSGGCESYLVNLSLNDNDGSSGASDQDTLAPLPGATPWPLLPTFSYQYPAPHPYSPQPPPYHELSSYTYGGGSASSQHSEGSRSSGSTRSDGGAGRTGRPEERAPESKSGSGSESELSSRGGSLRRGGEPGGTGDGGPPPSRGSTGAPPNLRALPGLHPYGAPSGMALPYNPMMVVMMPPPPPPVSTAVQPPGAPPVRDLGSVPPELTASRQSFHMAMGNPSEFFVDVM

variants of: B1; settings: with dvl2_mouse Dvl2, Q60838
MEASUREMENT TYPE: effect of a mutation on the interaction

D255E; disrupting interaction
F437S; disrupting interaction
S464N; disrupting interaction
